Source of measurements: the supplement of paper PMC11196671

protocol: PET hydrolysis product formed (TPA+MHET+BHET, UV-Vis) per mg enzyme (mmol/mg enzyme); higher = more PET depolymerisation activity; extreme values may be limits of the assay
measurementSetup: PET substrate: cryPow; 60 °C; pH 9.5; 24 h
Each entry gets 0 if its PET hydrolysis product formed stays under 0.1, and 1 if its PET hydrolysis product formed is 0.1 or above.

Solved entries (count: 6):
[
  {
    "sequenceEntry": "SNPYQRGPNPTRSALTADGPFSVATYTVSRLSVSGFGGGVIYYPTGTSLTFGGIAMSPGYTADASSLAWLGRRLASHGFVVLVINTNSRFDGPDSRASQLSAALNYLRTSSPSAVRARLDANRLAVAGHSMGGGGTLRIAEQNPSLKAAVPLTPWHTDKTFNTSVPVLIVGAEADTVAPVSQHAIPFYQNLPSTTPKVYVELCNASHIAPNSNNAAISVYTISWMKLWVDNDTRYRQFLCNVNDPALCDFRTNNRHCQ [LCC-ICCG]",
    "group": 1
  },
  {
    "sequenceEntry": "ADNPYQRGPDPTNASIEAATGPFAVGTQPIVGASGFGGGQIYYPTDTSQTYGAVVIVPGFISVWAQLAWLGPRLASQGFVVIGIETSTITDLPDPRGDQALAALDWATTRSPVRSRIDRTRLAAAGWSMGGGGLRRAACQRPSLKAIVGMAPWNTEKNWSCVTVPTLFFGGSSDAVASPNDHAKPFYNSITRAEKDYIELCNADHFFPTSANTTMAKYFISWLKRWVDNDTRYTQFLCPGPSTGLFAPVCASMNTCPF [CaPETaseM9]",
    "group": 0
  },
  {
    "sequenceEntry": "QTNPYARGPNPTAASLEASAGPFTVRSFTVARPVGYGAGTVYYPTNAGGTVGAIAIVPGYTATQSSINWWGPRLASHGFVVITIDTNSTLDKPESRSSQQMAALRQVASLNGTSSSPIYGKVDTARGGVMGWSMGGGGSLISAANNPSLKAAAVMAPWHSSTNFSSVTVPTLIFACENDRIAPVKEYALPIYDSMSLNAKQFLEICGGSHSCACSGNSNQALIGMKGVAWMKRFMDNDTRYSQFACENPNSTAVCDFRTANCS [HotPETase]",
    "group": 1
  },
  {
    "sequenceEntry": "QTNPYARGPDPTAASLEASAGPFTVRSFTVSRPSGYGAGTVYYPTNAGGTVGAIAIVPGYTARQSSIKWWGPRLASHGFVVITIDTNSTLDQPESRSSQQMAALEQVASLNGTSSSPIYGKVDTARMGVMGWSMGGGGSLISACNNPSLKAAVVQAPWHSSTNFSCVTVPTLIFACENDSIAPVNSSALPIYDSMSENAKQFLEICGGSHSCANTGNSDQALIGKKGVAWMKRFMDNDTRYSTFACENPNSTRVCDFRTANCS [Z1-PETase]",
    "group": 1
  },
  {
    "sequenceEntry": "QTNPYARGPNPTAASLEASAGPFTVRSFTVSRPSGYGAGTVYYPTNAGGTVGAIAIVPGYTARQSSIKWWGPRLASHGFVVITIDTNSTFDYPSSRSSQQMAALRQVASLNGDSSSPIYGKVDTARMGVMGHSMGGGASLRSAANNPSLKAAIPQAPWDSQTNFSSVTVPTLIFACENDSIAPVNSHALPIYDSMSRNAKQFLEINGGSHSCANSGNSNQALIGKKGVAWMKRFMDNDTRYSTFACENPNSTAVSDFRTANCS [DuraPETase]",
    "group": 0
  },
  {
    "sequenceEntry": "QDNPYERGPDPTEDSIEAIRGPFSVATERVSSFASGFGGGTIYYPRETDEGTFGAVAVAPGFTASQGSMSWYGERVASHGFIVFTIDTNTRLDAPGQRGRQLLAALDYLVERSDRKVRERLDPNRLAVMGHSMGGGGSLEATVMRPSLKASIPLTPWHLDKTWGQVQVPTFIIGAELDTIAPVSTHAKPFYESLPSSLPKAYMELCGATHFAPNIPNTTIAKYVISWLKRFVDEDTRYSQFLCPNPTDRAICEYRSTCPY [Cut190*SS]",
    "group": 0
  }
]

Now for a further sequence.
Would you say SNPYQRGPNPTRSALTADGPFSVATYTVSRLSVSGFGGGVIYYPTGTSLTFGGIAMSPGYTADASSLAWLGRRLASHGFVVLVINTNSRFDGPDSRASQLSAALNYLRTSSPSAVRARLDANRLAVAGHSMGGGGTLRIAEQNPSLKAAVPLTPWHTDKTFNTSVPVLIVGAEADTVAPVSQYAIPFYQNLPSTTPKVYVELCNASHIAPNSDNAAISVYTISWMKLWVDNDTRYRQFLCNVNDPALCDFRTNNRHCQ [LCC-A2] shows PET hydrolysis product formed at minimum 0.1?
1
